experiment: AUC in CD1 mouse at 10 mg/kg, po; type: ADME, organism-based; design: dose 10 mg/kg, route oral; conditions: plasma
reported.metric: AUC (ng·h/mL)

> print(dat)
                            chemical.string  reported.metric  unit.label  recorded.value
1  Cc1cccc(NC(=O)Nc2ccc(-c3cnc4c(-c5cnn(C)c5)cnn4c3N)cc2)c1              AUC     ng·h/mL             810

====

molecular target: Vascular endothelial growth factor receptor 2 (Homo sapiens, UniProt P35968); assay: Inhibition of human KDR phosphorylation expressed in mouse NIH3T3 cells by ELISA; type: cell-based
Sequence (P35968 whole entry): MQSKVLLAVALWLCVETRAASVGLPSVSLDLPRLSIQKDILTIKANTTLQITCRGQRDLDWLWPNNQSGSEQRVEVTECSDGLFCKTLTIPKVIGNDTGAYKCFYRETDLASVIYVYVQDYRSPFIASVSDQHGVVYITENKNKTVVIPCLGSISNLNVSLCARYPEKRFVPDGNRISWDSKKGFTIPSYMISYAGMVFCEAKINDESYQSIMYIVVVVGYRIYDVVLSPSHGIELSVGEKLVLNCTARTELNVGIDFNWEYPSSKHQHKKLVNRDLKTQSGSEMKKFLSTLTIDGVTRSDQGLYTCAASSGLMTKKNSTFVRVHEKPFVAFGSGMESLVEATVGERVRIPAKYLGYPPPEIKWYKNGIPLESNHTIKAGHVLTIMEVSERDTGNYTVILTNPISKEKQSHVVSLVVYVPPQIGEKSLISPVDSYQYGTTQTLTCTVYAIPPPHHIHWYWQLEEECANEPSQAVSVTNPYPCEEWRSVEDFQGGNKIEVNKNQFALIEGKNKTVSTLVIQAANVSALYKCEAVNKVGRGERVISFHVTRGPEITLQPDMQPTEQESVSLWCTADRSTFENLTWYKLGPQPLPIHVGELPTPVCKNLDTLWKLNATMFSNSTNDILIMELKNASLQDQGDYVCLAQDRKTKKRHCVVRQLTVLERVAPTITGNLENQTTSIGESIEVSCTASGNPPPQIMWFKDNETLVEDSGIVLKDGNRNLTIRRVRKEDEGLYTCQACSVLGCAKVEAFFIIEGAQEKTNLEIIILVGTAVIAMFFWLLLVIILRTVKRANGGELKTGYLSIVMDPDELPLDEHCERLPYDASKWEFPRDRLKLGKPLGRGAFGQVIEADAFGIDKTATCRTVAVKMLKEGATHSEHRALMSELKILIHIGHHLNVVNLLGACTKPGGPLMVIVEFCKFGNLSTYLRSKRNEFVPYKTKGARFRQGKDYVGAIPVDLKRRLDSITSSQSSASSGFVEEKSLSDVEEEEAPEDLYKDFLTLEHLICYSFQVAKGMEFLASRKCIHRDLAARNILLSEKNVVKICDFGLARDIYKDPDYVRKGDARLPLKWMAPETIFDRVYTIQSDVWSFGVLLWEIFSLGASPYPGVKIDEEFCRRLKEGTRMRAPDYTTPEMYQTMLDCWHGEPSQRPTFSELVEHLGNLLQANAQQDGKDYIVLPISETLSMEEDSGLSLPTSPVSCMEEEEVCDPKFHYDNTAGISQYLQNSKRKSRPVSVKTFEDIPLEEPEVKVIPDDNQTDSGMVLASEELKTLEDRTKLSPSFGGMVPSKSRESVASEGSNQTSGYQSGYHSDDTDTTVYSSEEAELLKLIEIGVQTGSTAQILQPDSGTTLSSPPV
reported.metric: IC50

> print(dat)
                            chemical.string                           measured.target  recorded.value
1  Cc1cccc(NC(=O)Nc2ccc(-c3cnc4c(-c5cnn(C)c5)cnn4c3N)cc2)c1  Vascular endothelial growth factor receptor 2 (Homo sapiens, UniProt P35968)          0.7 nM

====

assay: AUC in CD1 mouse at 3 mg/kg, iv; type: ADME, organism-based; design: dose 3 mg/kg, route intravenous; settings: plasma
reported.metric: AUC (ng·h/mL)

> print(dat)
                            chemical.string  reported.metric  recorded.value
1  Cc1cccc(NC(=O)Nc2ccc(-c3cnc4c(-c5cnn(C)c5)cnn4c3N)cc2)c1              AUC            1800

====

pIC50: −log10 of the molar value.
Vascular endothelial growth factor receptor 2 (Homo sapiens) pIC50 data
reported.metric: pIC50

> print(dat)
                             chemical.string  value.qualifier  recorded.value
 1            Nc1ccc(-c2cnc3c(Br)cnn3c2N)cc1                <            4.90
 2           COc1ccc(-c2cnc3c(Br)cnn3c2N)cc1                <            4.90
 3  Nc1c(-c2ccc(NC(=O)Nc3ccccc3)cc2)cnc2c(Br)cnn12                =            5.80
 4             Nc1c(-c2ccccc2)cnc2c(Br)cnn12                <            4.90
 5  Cc1cccc(NC(=O)Nc2cccc(-c3cnc4ccnn4c3N)c2)c1                =            5.18
 6  Cc1cccc(NC(=O)Nc2ccc(-c3cnc4c(C#N)cnn4c3N)cc2)c1                =            6.03
 7  Cc1cccc(NC(=O)Nc2ccc(-c3cnc4c(C(=O)O)cnn4c3N)cc2)c1                =            5.70
 8  Nc1c(-c2ccc(NC(=O)c3ccccc3)cc2)cnc2c(Br)cnn12                <            4.90
 9  Cc1cccc(NC(=O)Nc2ccc(-c3cnc4c(-c5cnn(C)c5)cnn4c3N)cc2)c1                =            8.40
10  Cc1cccc(NC(=O)Nc2ccc(-c3cnc4cc(-c5ccccc5)nn4c3N)cc2)c1                <            4.90
11  Cc1ccccc1NC(=O)Nc1ccc(-c2cnc3c(Br)cnn3c2N)cc1                <            4.90
12  CCN(CC)CCNC(=O)c1cnn2c(N)c(-c3ccc(NC(=O)Nc4cccc(C)c4)cc3)cnc12                =            6.30
13  Cc1ccc(F)c(NC(=O)Nc2ccc(-c3cnc4ccnn4c3N)cc2)c1                =            7.13
14     COc1ccc(-c2cnc3c(-c4ccsc4)cnn3c2N)cc1                =            5.21
15  Cc1ccc(NC(=O)Nc2ccc(-c3cnc4c(Br)cnn4c3N)cc2)cc1                =            6.09
16  Cc1cccc(NC(=O)Nc2ccc(-c3cnc4c(C(=O)N5CCN(C)CC5)cnn4c3N)cc2)c1                =            6.10
17  Cc1cccc(NC(=O)Nc2ccc(-c3cnc4c(Br)cnn4c3)cc2)c1                <            4.90
18  CNC(=O)c1cnn2c(N)c(-c3ccc(NC(=O)Nc4cccc(C)c4)cc3)cnc12                =            7.00
19  Cc1cccc(NC(=S)Nc2ccc(-c3cnc4ccnn4c3N)cc2)c1                =            5.00
20  Nc1c(-c2ccc(NC(=O)Nc3cccc(Cl)c3)cc2)cnc2ccnn12                =            7.36
21  Cc1cccc(NC(=O)Nc2ccc(-c3cnc4cc(C)nn4c3N)cc2)c1                =            5.46
